# Read-out: Plasminogen activator inhibitor-1 (PAI1), SERPINE1 (gene 5054)
# procedureSummary: BSK_MyoF_PAI1: BioMAP Diversity Plus: MyoF Assay for Plasminogen activator inhibitor-1 (PAI1) Biomarker Activity (AID 2284256)
# conditionSummary: primary human lung fibroblasts
The source made the active and inactive calls. The calls were made as follows: active = hit-call score of the fitted dose curve at least 0.9, where 1 is the maximum; inactive = score below 0.9.

[
  {
    "molecule": "c1ccc(Nc2ccc3ccccc3c2)cc1",
    "AC50": "31.6 µM (active)"
  },
  {
    "molecule": "CCc1cc(C)cc(CC)c1-c1c(OC(=O)C(C)(C)C)n2n(c1=O)CCOCC2",
    "AC50": "inactive"
  },
  {
    "molecule": "CC(C)(C)C(=O)CCl",
    "AC50": "32.9 µM (active)"
  },
  {
    "molecule": "Nc1ccc(-c2ccc(N)c(N)c2)cc1N",
    "AC50": "inactive"
  },
  {
    "molecule": "Clc1ccc(-c2ccccc2)cc1",
    "AC50": "0.121 µM (active)"
  },
  {
    "molecule": "O=C1C(Cl)=C(Cl)C(=O)C(Cl)=C1Cl",
    "AC50": "29.9 µM (active)"
  },
  {
    "molecule": "COCC(=O)N(c1c(C)cccc1C)N1CCOC1=O",
    "AC50": "inactive"
  },
  {
    "molecule": "CCCOC(=O)c1ccccc1C(=O)OCCC",
    "AC50": "inactive"
  },
  {
    "molecule": "O=c1c2ccccc2c(=O)c2c1cc(Cl)c1[nH]c3c([nH]c12)c(Cl)cc1c(=O)c2ccccc2c(=O)c13",
    "AC50": "inactive"
  },
  {
    "molecule": "C=CCN(CC=C)C(=O)C(Cl)Cl",
    "AC50": "inactive"
  },
  {
    "molecule": "O=[N+]([O-])C=Cc1ccccc1",
    "AC50": "12.3 µM (active)"
  },
  {
    "molecule": "CCC(C)c1cc([N+](=O)[O-])cc([N+](=O)[O-])c1OC(=O)C=C(C)C (stereo unspecified)",
    "AC50": "11.6 µM (active)"
  },
  {
    "molecule": "Oc1cc(Cl)ccc1Cl",
    "AC50": "0.245 µM (active)"
  },
  {
    "molecule": "COC(C)(C)CCC[C@H](C)C/C=C/C(C)=C/C(=O)OC(C)C",
    "AC50": "inactive"
  },
  {
    "molecule": "CC(C)CCCCCCCOP(=O)(Oc1ccccc1)Oc1ccccc1",
    "AC50": "12.8 µM (active)"
  },
  {
    "molecule": "CNC(=O)Oc1cc(C)c(SC)c(C)c1",
    "AC50": "inactive"
  }
]

###

# testedSystem: Hepatocyte nuclear factor 3-beta (Homo sapiens)
# procedureSummary: ATG_FoxA2_CIS: Attagene CIS-FACTORIAL HepG2 Assay for human Forkhead box A2 (FOXA2) (AID 2282942)
# conditionSummary: HepG2 cis-reporter transcription factor activity, 24 h; actives raise or lower the signal
Calls of active or inactive are those of the source. Rule for the calls: active = hit-call score of the fitted dose curve at least 0.9, where 1 is the maximum; inactive = score below 0.9.
Labels: active, inactive

[
  {
    "molecule": "NNc1ccccc1",
    "label": "inactive"
  },
  {
    "molecule": "O=C(O)C(Br)Br",
    "label": "inactive"
  },
  {
    "molecule": "Cc1ncc(C[n+]2csc(CCO)c2C)c(N)n1",
    "label": "inactive"
  },
  {
    "molecule": "CCCCNP(N)(N)=S",
    "label": "inactive"
  },
  {
    "molecule": "CN(C)C(=O)C(c1ccccc1)c1ccccc1",
    "label": "inactive"
  },
  {
    "molecule": "O=C(O)CCCc1ccc(N(CCCl)CCCl)cc1",
    "label": "inactive"
  },
  {
    "molecule": "CC(Cc1ccc(C(C)(C)C)cc1)CN1C[C@@H](C)O[C@@H](C)C1 (stereo partly specified)",
    "label": "inactive"
  },
  {
    "molecule": "C[N+](C)(C)CC(=O)O",
    "label": "inactive"
  },
  {
    "molecule": "[CH3][Sn]([CH3])([Cl])[Cl]",
    "label": "inactive"
  },
  {
    "molecule": "C=COCCCl",
    "label": "inactive"
  },
  {
    "molecule": "CC(C)(O)C#N",
    "label": "inactive"
  },
  {
    "molecule": "CCC(C)c1cc([N+](=O)[O-])cc([N+](=O)[O-])c1OC(=O)C=C(C)C (stereo unspecified)",
    "label": "inactive"
  },
  {
    "molecule": "O=[N+]([O-])O",
    "label": "inactive"
  },
  {
    "molecule": "CN(C)CCC#N",
    "label": "inactive"
  },
  {
    "molecule": "CC1CCC(=O)O1 (stereo unspecified)",
    "label": "inactive"
  },
  {
    "molecule": "CCC1CCC(=O)O1 (stereo unspecified)",
    "label": "inactive"
  },
  {
    "molecule": "N#CCCCCC#N",
    "label": "inactive"
  },
  {
    "molecule": "[N-]=[N+]=CC(=O)OC[C@H](N)C(=O)O",
    "label": "inactive"
  },
  {
    "molecule": "CC(=O)C=Cc1ccccc1",
    "label": "inactive"
  },
  {
    "molecule": "O=S(=O)(O)OOS(=O)(=O)O",
    "label": "inactive"
  },
  {
    "molecule": "C=CC(=O)OCCO",
    "label": "inactive"
  },
  {
    "molecule": "CCOC(=O)C1OC1(C)c1ccccc1 (stereo unspecified)",
    "label": "inactive"
  },
  {
    "molecule": "CN(N=O)c1ccccc1",
    "label": "inactive"
  },
  {
    "molecule": "CCNCC",
    "label": "inactive"
  },
  {
    "molecule": "BrCBr",
    "label": "inactive"
  },
  {
    "molecule": "O=C1Nc2ccc(Cl)cc2C(c2ccccc2)=NC1O (stereo unspecified)",
    "label": "inactive"
  },
  {
    "molecule": "Nc1ccc(Cl)c(Cl)c1",
    "label": "inactive"
  },
  {
    "molecule": "C=Cc1cccc(CCl)c1",
    "label": "inactive"
  },
  {
    "molecule": "[Cl][Sb]([Cl])[Cl]",
    "label": "inactive"
  },
  {
    "molecule": "Oc1ccc(Cl)cc1",
    "label": "inactive"
  },
  {
    "molecule": "Cc1cc(C)c(C2=C(OC(=O)CC(C)(C)C)C3(CCCC3)OC2=O)c(C)c1",
    "label": "inactive"
  },
  {
    "molecule": "C=CC(=O)OC",
    "label": "inactive"
  },
  {
    "molecule": "CCc1cccc(C)c1N(C(=O)CCl)[C@@H](C)COC",
    "label": "inactive"
  },
  {
    "molecule": "Nc1ccc(-c2ccc(N)c(N)c2)cc1N",
    "label": "inactive"
  },
  {
    "molecule": "O=C=Nc1ccccc1",
    "label": "inactive"
  },
  {
    "molecule": "O=C1C(Cl)=C(Cl)C(=O)C(Cl)=C1Cl",
    "label": "inactive"
  },
  {
    "molecule": "O=c1c2ccccc2c(=O)c2c1cc(Cl)c1[nH]c3c([nH]c12)c(Cl)cc1c(=O)c2ccccc2c(=O)c13",
    "label": "inactive"
  },
  {
    "molecule": "COc1cc(OC)c(OC)cc1C=O",
    "label": "inactive"
  },
  {
    "molecule": "C[N+](C)=CCl",
    "label": "inactive"
  },
  {
    "molecule": "[Cl-].[Cl-].[Cl-].[Yb+3]",
    "label": "inactive"
  },
  {
    "molecule": "N#CCCCl",
    "label": "inactive"
  },
  {
    "molecule": "CC(C)(c1cc(Cl)c(O)c(Cl)c1)c1cc(Cl)c(O)c(Cl)c1",
    "label": "inactive"
  },
  {
    "molecule": "CN1C(=O)CCS(=O)(=O)C1c1ccc(Cl)cc1 (stereo unspecified)",
    "label": "inactive"
  },
  {
    "molecule": "C[N+](C)(C)CC(=O)[O-]",
    "label": "inactive"
  },
  {
    "molecule": "CSc1nc(N=[N+]=[N-])nc(NC(C)C)n1",
    "label": "inactive"
  },
  {
    "molecule": "C[C@]12CCC(=O)C(O)=C1CC[C@@H]1[C@@H]2CC[C@]2(C)C(=O)CC[C@@H]12",
    "label": "inactive"
  },
  {
    "molecule": "COc1cc(OC)nc(Oc2cccc(Oc3nc(OC)cc(OC)n3)c2C(=O)O)n1",
    "label": "inactive"
  },
  {
    "molecule": "CCOC(=O)COc1ccc(Cl)cc1Cl",
    "label": "inactive"
  },
  {
    "molecule": "CC(C)(Cl)Cl",
    "label": "inactive"
  },
  {
    "molecule": "O=[N+]([O-])C=Cc1ccccc1",
    "label": "active"
  },
  {
    "molecule": "C#CC1(O)CCCCC1",
    "label": "inactive"
  },
  {
    "molecule": "Cc1ccc(N(SC(F)(Cl)Cl)S(=O)(=O)N(C)C)cc1",
    "label": "inactive"
  },
  {
    "molecule": "Cc1ccccc1CCl",
    "label": "inactive"
  },
  {
    "molecule": "CC=Cc1ccc2c(c1)OCO2",
    "label": "inactive"
  },
  {
    "molecule": "CC(=O)/C=C/c1ccccc1",
    "label": "inactive"
  },
  {
    "molecule": "ClC1=C(Cl)[C@]2(Cl)[C@@H]3[C@@H](Cl)[C@H](Cl)C[C@@H]3[C@@]1(Cl)C2(Cl)Cl",
    "label": "inactive"
  },
  {
    "molecule": "O=P(O)(Oc1ccccc1)Oc1ccccc1",
    "label": "inactive"
  },
  {
    "molecule": "CNC(=O)Oc1cc(C)c(SC)c(C)c1",
    "label": "inactive"
  },
  {
    "molecule": "[CH3][Sn]([Cl])([Cl])[Cl]",
    "label": "inactive"
  },
  {
    "molecule": "O=C(O)c1cc[c]([Hg][Cl])cc1",
    "label": "inactive"
  },
  {
    "molecule": "O=[N+]([O-])O.O=[N+]([O-])O.[Cd]",
    "label": "inactive"
  }
]

Cited source for all entries: PubChem BioAssay (EPA / NIEHS)
